ASSAY SUMMARY: in vitro
Type: in vitro ADME
PARTICULARS: human, Caco-2
REPORTED PROPERTY: Papp B→A at 90 min (×10⁻⁶ cm/s)
Express it in ×10⁻⁶ cm/s; write the number only.

Example entries begin here.
> print(dat)
                            chemical.smiles  readout.value
1  CC(C)(C)C(=O)OCOC(=O)Nc1ncnn2c([C@]3(C#N)O[C@H](CO)[C@@H](OC(=O)CC4CCCCC4)[C@H]3O)ccc12           0.23
2  CNc1nc(N)nc2c1ncn2[C@@H]1O[C@H](COC(C)=O)[C@@H](OC(=O)CC(C)C)[C@@]1(C)F            7.2
3  CC(C)(C)[C@@H](N)C(=O)OC[C@H]1O[C@@](C#N)(c2ccc3c(N)ncnn23)[C@H](O)[C@@H]1O            2.5
4  CC(=O)OC[C@H]1O[C@@](C#N)(c2ccc3c(N)ncnn23)[C@H](O)[C@@H]1OC(=O)C(C)C            2.4

Turning now to a further compound:
What the record says about CC(=O)N[C@H](C(=O)OC[C@H]1O[C@@](C#N)(c2ccc3c(N)ncnn23)[C@H](O)[C@@H]1OC(=O)CC1CCCCC1)C(C)(C)C : Papp B→A at 90 min is 13.8

Data provenance: patent US12102648B2
